Provenance of the data: paper PMC2834294

target: TRPML3 (Homo sapiens, UniProt Q8TDD5); test: Fura-2 calcium imaging, HEK293 cells transiently expressing TRPML3; format: cell-based; details: TRPML3-transfected HEK293 cells
quantityKind: kinetics of intracellular calcium increase

1. CC1=CC(C)(C)N(C(=O)CN2C(=O)c3ccccc3C2=O)c2ccccc21 [SF-51] ... slowest kinetics
2. CCCOc1cc(C)c(Cl)cc1S(=O)(=O)N(CC)CC [SF-33] ... slowest kinetics

---

Biological target: TRPML3 (Homo sapiens)
Sequence (Q8TDD5 1-553): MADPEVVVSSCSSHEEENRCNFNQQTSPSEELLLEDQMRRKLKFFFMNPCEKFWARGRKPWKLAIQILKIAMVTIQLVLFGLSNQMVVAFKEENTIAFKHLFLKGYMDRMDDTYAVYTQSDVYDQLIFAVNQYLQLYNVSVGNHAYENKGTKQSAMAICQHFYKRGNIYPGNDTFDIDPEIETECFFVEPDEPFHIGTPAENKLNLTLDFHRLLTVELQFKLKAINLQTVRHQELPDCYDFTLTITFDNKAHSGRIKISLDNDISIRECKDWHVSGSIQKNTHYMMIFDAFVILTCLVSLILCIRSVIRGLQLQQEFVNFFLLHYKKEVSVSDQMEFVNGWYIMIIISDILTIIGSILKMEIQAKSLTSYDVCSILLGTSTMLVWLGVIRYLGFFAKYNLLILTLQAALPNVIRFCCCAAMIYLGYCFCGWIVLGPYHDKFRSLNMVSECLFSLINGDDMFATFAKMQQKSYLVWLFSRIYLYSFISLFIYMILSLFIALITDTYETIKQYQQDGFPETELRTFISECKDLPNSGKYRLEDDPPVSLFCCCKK
Assay type: cell-based
Settings: HEK293, read-out: Max % Activation (TRPML3)
quantityKind: Emax (%)
Could you give me the number in %? Just the number is fine.

1. O=S(=O)(NC1CCCCC1N1CCOCC1)c1ccc(Cl)cc1 (stereo not drawn) ... 200
2. Cc1ccc(S(=O)(=O)n2nccc2-c2c(-c3ccc(Cl)cc3)noc2C)cc1 ... 135
3. O=S(=O)(Nc1ccccc1N1CCCCC1)c1ccc(Cl)s1 ... 156
4. Cc1ccc(N2CCN(S(=O)(=O)N3CCCCC3)CC2)c(C)c1 ... 138
5. Cc1cc(C)c(C2=NOC3C4CCC(C4)C23)c(C)c1 (stereo not drawn) ... 149

Identify the measured Emax of `Cc1ccc(S(=O)(=O)Nc2ccccc2-c2ccccc2)cc1` for TRPML3 (Homo sapiens). 86

Next compound: `CCOc1ccc(S(=O)(=O)NC(C)(C)C)cc1-c1nc(=O)c2c([nH]1)c(C(C)(C)C)nn2C` 151

Next compound: `CC1=CC(C)(C)N(C(=O)CN2C(=O)c3ccccc3C2=O)c2ccccc21` 175
